# protocol_text: Dog PK following IV and oral dosing
# Format: in vivo, male Beagle dogs
# Set-up: dose or concentration left out as unconfirmed
# condition_summary: male, Beagle, plasma; dog, Compound I-1 0.36 mpk IV in PBS; analyte Compound I-1
parameter_measured: AUC(0-inf) (ng·h/mL)
Only the number, expressed in ng·h/mL, is required.

Which AUC(0-inf) value is on record for O=P(O)(O)OC(CNc1nc(-c2cc(-c3ccon3)n(Cc3ccccc3F)n2)ncc1F)(C(F)(F)F)C(F)(F)F ?
1550

* * *

# protocol_text: Rat PK following intravenous and oral dosing
# Type: in vivo, male Sprague-Dawley rats
# condition_summary: plasma, Intermediate 3 dosed 3.0 mg/kg PO
parameter_measured: AUC(0-t)
State the result as a value with its unit after it.

Request the reported AUC(0-t) associated with OC(CNc1nc(-c2cc(-c3ccon3)n(Cc3ccccc3F)n2)ncc1F)(C(F)(F)F)C(F)(F)F [Intermediate 3]
3.6 µg·h/mL

* * *

# protocol_text: Dog PK following IV and oral dosing
# Type: in vivo, male Beagle dogs
# Set-up: dose or concentration left out as unconfirmed
# condition_summary: male, Beagle, plasma; dog, Compound I-1 0.36 mpk IV in PBS; analyte Compound I-1
parameter_measured: clearance
Mention the unit after the number when you answer.

I have this compound here, O=P(O)(O)OC(CNc1nc(-c2cc(-c3ccon3)n(Cc3ccccc3F)n2)ncc1F)(C(F)(F)F)C(F)(F)F [Compound I-1] , and I need its recorded clearance.
8.3 mL/min/kg
